Please provide measured response of 2nd mAb for the entries that follow.
targetOrSystem: T1, ZIKV-VLP (Native Antigen Inc.) (Zika virus)
T1 construct: also called Zika VLP; ZVLP
assayRemarks: BLI binning on ZIKV-VLP; 1st mAb: 102-1
Answers are plain numbers.

Below: 2 binders and their reported response of 2nd mAb.
anti-ZIKV antibody 78-2 (antibody, V domains shown, also called clone 78-2) VH: QQQLVESGGGLVKPGASLTLNCKASGLDFSTNSYMCWVRQAPGKGLEWIACIYVGDSSEIYYASWAKGRFTISKTSSTTVTLQMTSLTAADTATYFCARDLPSFTAPYAGYLRLWGPGTLVTVSS VL: QPVLTQPPSLSASLGTTARLTCTLRTGYNVGDYPLLWLQRVPGRPPRYLLTYHTEEFKHQGSGVHSRFSGSKDASENAGVLSISGLQPEDEANYYCYTVHATESSLHYVFGGGTQLTVTG = 0.32
anti-ZIKV antibody 11-3 (antibody, V domains shown, also called clone 11-3) VH: QEQLVESGGGLVQPEGSLTITCTGSGFSFSSRFYMCWVRQAPGKGLEWIACIYGGSSGSTYYASWAKGRFTISKTSSTTVTLQISSLTAADTATYFCARGGSTAAAGFNLWGPGTLLTVSS VL: DVVMTQTPASVSATVGGTVTIKCQASEDIYNLLAWYQQKPGQPPKLLIYYASTLASGVPSRFKGSGSGTEFTLTISDLECADAATYYCQCNDYGGTYVPNAFGGGTEVVVKG = 0.45

# context switch: different binder, same response of 2nd mAb
Give the measured response of 2nd mAb of anti-ZIKV antibody 242-3 (antibody, V domains shown, also called clone 242-3) VH: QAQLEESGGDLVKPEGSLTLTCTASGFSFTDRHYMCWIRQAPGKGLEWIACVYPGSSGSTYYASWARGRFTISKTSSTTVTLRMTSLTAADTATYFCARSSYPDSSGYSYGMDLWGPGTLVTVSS VL: DIVMTQTPASVEAAVGGTVTIKCQASQNINSNLAWYQQKPGQRPKFLMYLTSKLASGVPSRFRGSGSGTQFTLTISDLECADAATYYCQTYYDISNYGYAFGGGTEVVVK . 0.1
